target: LRRK2 mutant (G2019S) (Homo sapiens (Human), UniProt Q5S007, G2019S); assay: Evaluation of inhibitory activity against LRRK2 (affinity bead competition binding), G2019S mutant; conditions: 100 nM; read-out: Residual active values (%) LRRK2(G2019S)
Sequence (Q5S007 whole entry G2019S, looked up): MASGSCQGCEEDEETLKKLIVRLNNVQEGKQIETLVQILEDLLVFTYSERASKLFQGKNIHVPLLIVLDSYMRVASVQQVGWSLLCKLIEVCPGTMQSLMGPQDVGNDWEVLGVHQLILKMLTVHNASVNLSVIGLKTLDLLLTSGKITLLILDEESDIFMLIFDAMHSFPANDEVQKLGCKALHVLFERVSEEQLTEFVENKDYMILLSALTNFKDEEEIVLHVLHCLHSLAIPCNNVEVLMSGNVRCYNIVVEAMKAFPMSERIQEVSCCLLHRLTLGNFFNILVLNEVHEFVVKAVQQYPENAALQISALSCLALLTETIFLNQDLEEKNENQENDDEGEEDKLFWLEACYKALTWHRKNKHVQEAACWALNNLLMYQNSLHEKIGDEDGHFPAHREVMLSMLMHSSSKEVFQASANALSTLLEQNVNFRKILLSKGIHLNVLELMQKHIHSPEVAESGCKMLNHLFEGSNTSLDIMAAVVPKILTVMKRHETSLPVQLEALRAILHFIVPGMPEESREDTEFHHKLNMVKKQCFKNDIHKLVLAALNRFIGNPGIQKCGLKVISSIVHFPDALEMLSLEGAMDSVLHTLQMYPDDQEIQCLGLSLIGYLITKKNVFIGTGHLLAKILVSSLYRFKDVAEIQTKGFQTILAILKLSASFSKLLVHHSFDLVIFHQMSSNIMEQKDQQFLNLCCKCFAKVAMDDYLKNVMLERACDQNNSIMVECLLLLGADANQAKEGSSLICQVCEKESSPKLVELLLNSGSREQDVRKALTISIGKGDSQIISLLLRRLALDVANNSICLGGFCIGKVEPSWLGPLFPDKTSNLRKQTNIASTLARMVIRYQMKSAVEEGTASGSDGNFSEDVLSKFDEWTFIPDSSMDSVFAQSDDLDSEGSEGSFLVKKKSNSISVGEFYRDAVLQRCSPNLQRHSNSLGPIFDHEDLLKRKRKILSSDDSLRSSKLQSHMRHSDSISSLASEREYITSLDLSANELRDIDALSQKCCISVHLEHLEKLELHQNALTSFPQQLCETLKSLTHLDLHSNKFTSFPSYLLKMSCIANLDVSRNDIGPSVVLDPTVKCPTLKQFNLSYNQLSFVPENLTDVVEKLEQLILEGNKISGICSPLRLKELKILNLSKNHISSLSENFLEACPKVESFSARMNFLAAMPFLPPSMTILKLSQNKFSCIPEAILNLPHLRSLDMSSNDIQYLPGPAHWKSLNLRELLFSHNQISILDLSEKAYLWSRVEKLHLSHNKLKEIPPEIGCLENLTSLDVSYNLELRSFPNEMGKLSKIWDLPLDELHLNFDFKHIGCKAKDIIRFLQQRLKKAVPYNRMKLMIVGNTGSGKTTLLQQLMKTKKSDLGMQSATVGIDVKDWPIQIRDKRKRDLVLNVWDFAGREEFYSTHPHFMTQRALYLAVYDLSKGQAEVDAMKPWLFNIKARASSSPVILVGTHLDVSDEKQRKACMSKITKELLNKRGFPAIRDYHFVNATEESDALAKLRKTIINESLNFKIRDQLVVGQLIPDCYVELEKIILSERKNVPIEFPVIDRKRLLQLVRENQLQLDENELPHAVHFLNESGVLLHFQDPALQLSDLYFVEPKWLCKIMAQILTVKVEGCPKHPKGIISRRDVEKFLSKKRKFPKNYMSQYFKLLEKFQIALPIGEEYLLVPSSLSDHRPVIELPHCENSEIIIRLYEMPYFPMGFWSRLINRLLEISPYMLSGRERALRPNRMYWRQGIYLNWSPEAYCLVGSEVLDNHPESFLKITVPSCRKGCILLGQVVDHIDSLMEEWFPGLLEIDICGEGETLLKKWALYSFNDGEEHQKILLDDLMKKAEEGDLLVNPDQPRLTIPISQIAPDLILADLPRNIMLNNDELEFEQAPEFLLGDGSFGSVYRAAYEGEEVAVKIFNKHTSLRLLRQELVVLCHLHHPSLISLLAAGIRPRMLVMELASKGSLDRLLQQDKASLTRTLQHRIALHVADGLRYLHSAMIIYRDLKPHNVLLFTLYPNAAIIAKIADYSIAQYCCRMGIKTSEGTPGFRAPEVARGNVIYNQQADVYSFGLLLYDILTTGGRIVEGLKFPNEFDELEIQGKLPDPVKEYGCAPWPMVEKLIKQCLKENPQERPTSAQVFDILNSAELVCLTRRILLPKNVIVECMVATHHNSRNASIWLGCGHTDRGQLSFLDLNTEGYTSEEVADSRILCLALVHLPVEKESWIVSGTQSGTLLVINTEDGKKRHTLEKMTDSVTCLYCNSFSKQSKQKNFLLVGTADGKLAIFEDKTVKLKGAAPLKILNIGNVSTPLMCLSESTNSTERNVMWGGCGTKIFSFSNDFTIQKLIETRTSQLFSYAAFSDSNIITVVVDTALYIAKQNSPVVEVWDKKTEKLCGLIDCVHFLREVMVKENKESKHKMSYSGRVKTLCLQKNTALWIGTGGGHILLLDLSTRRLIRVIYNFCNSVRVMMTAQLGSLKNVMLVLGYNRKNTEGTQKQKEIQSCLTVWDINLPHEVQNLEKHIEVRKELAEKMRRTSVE

{"smiles-str": "Cc1ccc(C(=O)N2CCN(C)CC2)cc1-n1c(C)cc(-c2nc3ncc(Br)c(Nc4cccc(S(N)(=O)=O)c4)c3[nH]2)c1C", "scale-unit": "%", "remaining binding at 0.1 µM": 79}
{"smiles-str": "CCS(=O)(=O)N1CC[C@H](Nc2c(Br)cnc3nc(-c4cc(C)n(-c5cc(C(=O)NCCN(C)C)ccc5C)c4C)[nH]c23)C1", "scale-unit": "%", "remaining binding at 0.1 µM": 66}
{"smiles-str": "Cc1ccc(C(=O)NCCN(C)C)cc1-n1c(C)cc(-c2nc3ncc(Br)c(Nc4cccc(S(N)(=O)=O)c4)c3[nH]2)c1C", "scale-unit": "%", "remaining binding at 0.1 µM": 0.8}

###

Here the recorded inhibition at 10 µM is given for each entry.
tested on: acute myeloid leukemia cell line U937; test: Cancer cell proliferation inhibitory activity evaluation 2 (CCK-8), U937; assay type: cell-based; settings: Homo sapiens, U-937; 10 μM, 72 hours, CCK-8 (Table 3); read-out: Cancer cell proliferation inhibitory activity U937
quantity-measured: inhibition at 10 µM

{"smiles-str": "CCS(=O)(=O)N1CC[C@H](Nc2c(Br)cnc3[nH]c(-c4cc(C)n(-c5cccc(C(=O)O)c5)c4C)nc23)C1", "quantity-measured": "inhibition at 10 µM", "endpoint-result": "< 10%"}
{"smiles-str": "Cc1ccc(NC(=O)CN(C)C)cc1-n1c(C)cc(-c2nc3ncc(Br)c(Nc4cccc(S(N)(=O)=O)c4)c3[nH]2)c1C", "quantity-measured": "inhibition at 10 µM", "endpoint-result": "10 to 50%"}
{"smiles-str": "CCS(=O)(=O)N1CC[C@H](Nc2c(Br)cnc3[nH]c(-c4cc(C)n(-c5cc(S(N)(=O)=O)ccc5Cl)c4C)nc23)C1", "quantity-measured": "inhibition at 10 µM", "endpoint-result": "10 to 50%"}
{"smiles-str": "Cc1ccc(NC(=O)CN2CCOCC2)cc1-n1c(C)cc(-c2nc3ncc(Br)c(Nc4cccc(S(N)(=O)=O)c4)c3[nH]2)c1C", "quantity-measured": "inhibition at 10 µM", "endpoint-result": "10 to 50%"}
{"smiles-str": "Cc1cc(-c2nc3ncc(Br)c(Nc4cccc(S(N)(=O)=O)c4)c3[nH]2)c(C)n1-c1cccc(OCCN2CCOCC2)c1", "quantity-measured": "inhibition at 10 µM", "endpoint-result": "10 to 50%"}
{"smiles-str": "CCS(=O)(=O)N1CC[C@H](Nc2c(Br)cnc3[nH]c(-c4cc(C)n(-c5ccccc5)c4C)nc23)C1", "quantity-measured": "inhibition at 10 µM", "endpoint-result": "10 to 50%"}

###

target: LRRK2 wild-type (Homo sapiens (Human), UniProt Q5S007); assay: Evaluation of inhibitory activity against LRRK2 (affinity bead competition binding), wild-type; conditions: 100 nM; read-out: Residual active values (%) LRRK2
Sequence (Q5S007 whole entry, looked up): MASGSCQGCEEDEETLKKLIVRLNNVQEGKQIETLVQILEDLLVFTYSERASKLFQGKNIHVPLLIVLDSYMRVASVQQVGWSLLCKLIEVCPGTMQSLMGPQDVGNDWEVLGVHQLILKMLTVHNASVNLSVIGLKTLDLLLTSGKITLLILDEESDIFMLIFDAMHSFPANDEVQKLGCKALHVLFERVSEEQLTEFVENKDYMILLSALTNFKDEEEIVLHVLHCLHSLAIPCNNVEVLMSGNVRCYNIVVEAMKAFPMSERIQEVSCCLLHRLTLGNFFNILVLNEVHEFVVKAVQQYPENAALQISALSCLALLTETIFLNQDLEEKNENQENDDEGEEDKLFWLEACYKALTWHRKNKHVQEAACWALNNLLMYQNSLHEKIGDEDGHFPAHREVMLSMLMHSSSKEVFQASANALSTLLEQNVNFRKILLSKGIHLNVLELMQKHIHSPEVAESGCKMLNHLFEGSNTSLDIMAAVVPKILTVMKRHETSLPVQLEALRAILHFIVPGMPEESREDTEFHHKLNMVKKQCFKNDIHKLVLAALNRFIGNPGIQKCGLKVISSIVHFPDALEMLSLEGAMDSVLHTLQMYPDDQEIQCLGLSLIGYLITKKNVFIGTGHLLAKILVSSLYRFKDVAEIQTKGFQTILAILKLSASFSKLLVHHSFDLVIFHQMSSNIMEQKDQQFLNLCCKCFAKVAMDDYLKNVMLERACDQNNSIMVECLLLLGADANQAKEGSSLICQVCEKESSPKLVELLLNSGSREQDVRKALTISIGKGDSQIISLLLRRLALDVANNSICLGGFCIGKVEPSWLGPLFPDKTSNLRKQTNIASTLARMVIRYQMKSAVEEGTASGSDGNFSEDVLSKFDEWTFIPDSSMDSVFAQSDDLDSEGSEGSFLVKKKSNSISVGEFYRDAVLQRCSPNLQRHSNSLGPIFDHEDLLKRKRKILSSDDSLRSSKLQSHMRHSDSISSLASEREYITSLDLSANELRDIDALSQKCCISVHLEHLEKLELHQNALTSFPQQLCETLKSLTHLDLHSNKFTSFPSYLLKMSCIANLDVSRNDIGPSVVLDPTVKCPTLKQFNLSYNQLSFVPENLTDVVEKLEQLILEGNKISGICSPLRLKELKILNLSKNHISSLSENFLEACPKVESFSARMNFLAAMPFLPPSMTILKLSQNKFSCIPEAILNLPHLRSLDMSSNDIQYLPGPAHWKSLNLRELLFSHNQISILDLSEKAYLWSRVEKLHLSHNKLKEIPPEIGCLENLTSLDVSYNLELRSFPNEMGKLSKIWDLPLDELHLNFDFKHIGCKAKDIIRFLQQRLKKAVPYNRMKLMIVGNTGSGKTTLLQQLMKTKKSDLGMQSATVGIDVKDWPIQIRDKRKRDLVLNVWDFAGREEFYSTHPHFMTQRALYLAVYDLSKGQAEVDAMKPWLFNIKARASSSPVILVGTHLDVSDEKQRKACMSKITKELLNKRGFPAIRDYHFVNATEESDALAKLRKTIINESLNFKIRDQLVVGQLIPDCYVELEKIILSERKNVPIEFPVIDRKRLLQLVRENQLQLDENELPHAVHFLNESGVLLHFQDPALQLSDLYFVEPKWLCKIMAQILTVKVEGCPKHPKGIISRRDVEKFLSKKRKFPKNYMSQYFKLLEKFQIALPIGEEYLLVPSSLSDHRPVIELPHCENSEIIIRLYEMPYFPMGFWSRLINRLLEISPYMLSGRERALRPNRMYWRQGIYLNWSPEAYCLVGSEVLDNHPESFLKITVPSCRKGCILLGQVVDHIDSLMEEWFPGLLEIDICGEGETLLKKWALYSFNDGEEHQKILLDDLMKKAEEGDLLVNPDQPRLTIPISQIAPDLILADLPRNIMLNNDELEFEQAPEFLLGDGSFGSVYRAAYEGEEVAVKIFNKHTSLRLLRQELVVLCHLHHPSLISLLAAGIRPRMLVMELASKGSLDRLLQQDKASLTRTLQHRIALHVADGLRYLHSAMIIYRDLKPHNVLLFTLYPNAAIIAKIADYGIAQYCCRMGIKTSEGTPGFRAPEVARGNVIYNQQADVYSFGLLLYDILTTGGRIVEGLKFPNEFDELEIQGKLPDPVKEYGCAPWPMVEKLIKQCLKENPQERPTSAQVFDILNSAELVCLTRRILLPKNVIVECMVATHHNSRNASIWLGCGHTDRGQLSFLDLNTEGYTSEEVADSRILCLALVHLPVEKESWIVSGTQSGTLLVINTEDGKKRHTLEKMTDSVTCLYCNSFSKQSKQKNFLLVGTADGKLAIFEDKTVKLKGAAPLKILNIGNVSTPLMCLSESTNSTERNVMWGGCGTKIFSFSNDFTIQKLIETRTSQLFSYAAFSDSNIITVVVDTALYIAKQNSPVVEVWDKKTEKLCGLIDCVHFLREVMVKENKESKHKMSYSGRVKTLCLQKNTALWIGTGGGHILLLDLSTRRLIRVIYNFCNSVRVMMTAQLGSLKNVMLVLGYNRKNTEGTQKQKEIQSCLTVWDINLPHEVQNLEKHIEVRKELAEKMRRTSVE
Here the recorded remaining binding at 0.1 µM is given for each entry.
quantity-measured: remaining binding at 0.1 µM (%)

{"smiles-str": "CCS(=O)(=O)N1CC[C@H](Nc2c(Br)cnc3nc(-c4cc(C)n(-c5cc(NC(=O)CN6CCN(C)CC6)ccc5C)c4C)[nH]c23)C1", "measured-on": "LRRK2 wild-type (Homo sapiens (Human), UniProt Q5S007)", "endpoint-result": 3.6}
{"smiles-str": "CCS(=O)(=O)N1CC[C@H](Nc2c(Br)cnc3nc(-c4cc(C)n(-c5cc(C(=O)NCCN(C)C)ccc5C)c4C)[nH]c23)C1", "measured-on": "LRRK2 wild-type (Homo sapiens (Human), UniProt Q5S007)", "endpoint-result": 60}
{"smiles-str": "CCS(=O)(=O)N1CC[C@H](Nc2c(Br)cnc3nc(-c4cc(C)n(-c5cccc(OCCN6CCOCC6)c5)c4C)[nH]c23)C1", "measured-on": "LRRK2 wild-type (Homo sapiens (Human), UniProt Q5S007)", "endpoint-result": 17}
